# Test system: H1N1 (influenza A/New Caledonia/20/99)
# assay_remarks: Antiviral effect on A549 cells infected with H1N1
# Type: cell-based, H1N1 A/New Caledonia/20/99 virus
# condition_context: Influenza A virus, H1N1, A549, 48 h, Human A549 cells, MOI of 0.1, 48 h post-infection, MUNANA hydrolysis readout
Where a name gives a salt, the structure may show the parent alone.
Labels assigned by IC50 range: low = under 0.1 µM, mid = from 0.1 µM up to 0.9 µM, high = 0.9 µM and over

For orientation, consider the following solved cases.
>>> print(df.to_string())
                                   compound  assigned_label
0  CC(C)OC1CCc2c(sc(NC(=O)c3ccccc3)c2C(=O)O)C1 (centres unmarked) [#103]            high
1  CC(C)(C)C1CCc2c(sc(NC(=O)c3ccc(OCCCN)cc3)c2C(=O)O)C1 (centres unmarked) [#124, hydrochloride salt]            high
2  COc1ccc(C(=O)Nc2sc3c(c2C(=O)O)CCC(C(C)(C)C)C3)c(F)c1 (centres unmarked) [#5]             low
3  CC(=O)Nc1ccc(C(=O)Nc2sc3c(c2C(=O)O)CCC(C(C)(C)C)C3)cc1 (centres unmarked) [#93]             mid
4  CC(C)(C)C1CCc2c(sc(NC(=O)c3cccc(F)c3)c2C(=O)O)C1 (centres unmarked) [#83]             mid
5  Cc1ccccc1C(=O)Nc1sc2c(c1C(=O)O)CCCC2 [#95]             mid
6  Cc1ccoc1C(=O)Nc1sc2c(c1C(=O)O)CCC(C(C)(C)C)C2 (centres unmarked) [#110]            high
7  CC(C)(C)C1CCc2c(sc(NC(=O)c3ccc(F)cc3)c2C(=O)O)C1 (centres unmarked) [#68]             mid
8  CC1(C)Cc2c(sc(NC(=O)c3ccccc3)c2C(=O)O)C(C)(C)O1 [#175]             mid
9  COc1cccc(C(=O)Nc2sc3c(c2C(=O)O)CCC(C(C)(C)C)C3)c1 (centres unmarked) [#2]             low

stdin: Tag the class for CC(C)(C)C1CCc2c(sc(NC(=O)c3ccc(Cl)cc3)c2C(=O)O)C1 (centres unmarked) [#10]
stdout: low

stdin: Also, Cn1cc(C(=O)Nc2sc3c(c2C(=O)O)CCC(C(C)(C)C)C3)cn1 (centres unmarked) [#101] please.
stdout: high

stdin: Also, CC(C)(C)C1CCc2c(sc(NC(=O)c3ccncc3)c2C(=O)O)C1 (centres unmarked) [#123] please.
stdout: high

stdin: Also, CC(C)(C)C1CCc2c(sc(NC(=O)c3ccccc3Cl)c2C(=O)O)C1 (centres unmarked) [#107] please.
stdout: high

stdin: Also, CC(C)(C)C1CCc2c(sc(NC(=O)c3ccc(OC(F)F)cc3)c2C(=O)O)C1 (centres unmarked) [#7] please.
stdout: low

stdin: Also, O=C(Nc1sc2c(c1C(=O)O)CCCC2)c1ccc(NCC2CCOCC2)cc1 [#216] please.
stdout: low
